Test: chemical genetic growth profiling, strain panel (AID 1159580);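 also: tested at 20 µM; growth read once vehicle control cultures reached saturation at 30 °C; 1 = growth at the plate median or of vehicle wells; lower values mean less growth of the strain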
Conditions: S. cerevisiae deletion strains, growth OD, locus YEL037C, strain rad23, stronger effect = lower value
Hit rate of the full screen: of about 5,500 compounds, about 2,000 (36%) were called active. About 18% were inconclusive and are not listed. The list shows a part of the results.
parameterMeasured: normalized growth
Just the number, please, no unit attached.

CC12CCC(=O)C=C1CCC1C2[C@@H](O)CC2(C)C1CC[C@]2(O)C(=O)COP(=O)(O)O (stereo not given in full) | 1.01
Cc1cc(=O)oc2cc(O)c(O)cc12 | 0.991
CC(=O)O[C@H]1CC[C@@]2(C)C(C[C@@H](OC(C)=O)[C@@]3(C)C4=CC(=O)O[C@@H](c5ccoc5)[C@]4(C)CCC23)C1(C)C (stereo not given in full) | 1
CC(C)CCCC(C)[C@H]1CCC2C3C(=O)C=C4C[C@@H](O)CC[C@]4(C)C3CC[C@@]21C (stereo not given in full) | 1.01
CC(=O)O[C@H]1CC[C@@]2(C)C(=CC(=O)C3C4CCC(C(C)CCCC(C)C)[C@@]4(C)CCC32)C1 (stereo not given in full) | 0.994
CC1(C)CC2C1CC[C@]1(CBr)CCC3C(CC(=O)O)C(=O)O[C@@]32C1 (stereo not given in full) | 1.01
Cc1cc(=O)[nH]c(=S)[nH]1 | 0.98
CC(=O)Oc1cccc(O)c1 | 1.02
Cc1cc(=O)oc2cc(O)cc(O)c12 | 0.929

Incoming: I'd like to know its normalized growth. The compound in question is "CC(=O)Oc1ccc(C(c2ccc(OC(C)=O)cc2)c2ccccn2)cc1"
Outgoing: 1.02

###

Assay: chemical genetic growth profiling, strain panel (AID 1159580);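 also: tested at 20 µM; growth read once vehicle control cultures reached saturation at 30 °C; 1 = growth at the plate median or of vehicle wells; lower values mean less growth of the strain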
Conditions: S. cerevisiae deletion strains, growth OD, locus YJL095W, strain BCK1, stronger effect = lower value
Hit rate of the full screen: of about 5,500 compounds, about 2,000 (36%) were called active. Inconclusive results (about 18%) are left out. The list shows a part of the results.
Reported normalized growth is given for each of the following compounds.

Field: example entries. Status: answers known.
CSc1sc(C(=O)Sc2ccccc2)cc1S(=O)(=O)C(C)C | 0.937 (inactive)
NNCc1cccc(O)c1 | 1.01 (inactive)
CN(C)[C@@H]1C(=O)C(C(=O)NCN2CCCC2)=C(O)[C@@]2(O)C(=O)C3=C(O)c4c(O)cccc4[C@@](C)(O)[C@H]3C[C@@H]12 | 0.992 (inactive)

Incoming: I'd like to know its normalized growth. The compound in question is O=[N+]([O-])c1cccc(C2CC(c3ccccc3)=Nc3ccccc3S2)c1 (stereo unspecified)
Outgoing: 0.982 (inactive)

Incoming: I'd like to know its normalized growth. The compound in question is CC(C)CCCC(C)[C@H]1CCC2C3CC[C@@H]4C[C@H](O)CC[C@]4(C)C3CC[C@@]21C (stereo partly specified)
Outgoing: 1.01 (inactive)

Incoming: I'd like to know its normalized growth. The compound in question is "NCCCNCCCCNCCCN"
Outgoing: 0.98 (inactive)

Incoming: I'd like to know its normalized growth. The compound in question is O=P1(NCCCl)OCCCN1CCCl (stereo unspecified)
Outgoing: 0.989 (inactive)

Incoming: I'd like to know its normalized growth. The compound in question is "CC(=O)c1ccc(Cl)c(N=Cc2cc(Br)cc(Br)c2O)c1"
Outgoing: 0.141 (active)

Incoming: I'd like to know its normalized growth. The compound in question is C=C(C)C1CCC(C)(O)C2CC3OC3(C)C2C1 (stereo unspecified)
Outgoing: 0.978 (inactive)

Incoming: I'd like to know its normalized growth. The compound in question is O=C(CSC1=NNC(c2ccccn2)S1)Nc1ccccc1 (stereo unspecified)
Outgoing: 1.08 (inactive)

Incoming: I'd like to know its normalized growth. The compound in question is CC(=O)O[C@H]1CCC2(C)C3=C(CCC2C1(C)C)[C@@]1(C)CC[C@@H](C(C)CCC=C(C)C)[C@]1(C)CC3 (stereo partly specified)
Outgoing: 1.03 (inactive)

Incoming: I'd like to know its normalized growth. The compound in question is "CC(C)(C)c1cc(C(=O)Nc2ccc3c(c2)OCO3)n(Cc2ccc(F)cc2)n1"
Outgoing: 0.877 (inactive)
